tested on: P. falciparum 7G8^C350R; assay: ABS susceptibility, pfcrt-edited line; type: cell-based; conditions: Plasmodium falciparum
Measure: IC50 (µM)
Field format: number, assumed µM, no unit text.

Quick one: give measured IC50 for COc1cc2nccc(Nc3cccc(Oc4ccccc4)c3)c2cc1OC
0.577

====

assay: MTT cytotoxicity assay, 72 h; format: cell-based, monkey; details: monkey, COS-7 cells; MTT, 72 h, N = 3
Measure: log10(CC50 at 72 h) (log10 of the value in µM)
Could you please treat all values as log10 of CC50 at 72 h in µM?

COc1cc(Nc2ccnc3ccccc23)cc(OC)c1 [LDT-621] | 0.81
COc1ccc(Nc2ccnc3ccc(F)cc23)cc1OC [LDT-625] | 1.31
COc1ccc(Nc2ccnc3ccccc23)cc1 [LDT-627] | 1.74

Query log10(CC50 at 72 h) for COc1cc2nccc(Nc3cccc(Oc4ccccc4)c3)c2cc1OC [LDT-623]
-0.30

Give recorded log10(CC50 at 72 h). COc1ccc2c(Nc3ccccc3)ccnc2c1 [LDT-622]
0.58

Please report log10(CC50 at 72 h) for the following compound: COc1ccc(Nc2ccnc3c(F)cc(F)cc23)cc1OC [LDT-626]
1.71

Please report the measured log10(CC50 at 72 h) for COc1cccc(Nc2ccnc3ccccc23)c1 [LDT-617]
1.71

Kindly indicate its recorded log10(CC50 at 72 h). Item: CCOc1cc2nccc(Nc3cc(OC)c(OC)c(OC)c3)c2cc1OCC [LDT-620]
0.41

Specify measured log10(CC50 at 72 h) for COc1cc(Nc2ccnc3cc(Br)ccc23)cc(OC)c1OC [LDT-624] .
1.62

====

Here, each record is paired with measured SI (CC50 HepG2 / IC50 3D7) data.
tested on: HepG2 cells; experiment: MTT cytotoxicity assay, 72 h; format: cell-based, Human
Number, no unit, nothing else.

// known answers, use as guide
COc1cc(Nc2ccnc3ccccc23)cc(OC)c1 [LDT-621] | 0.2
COc1ccc(Nc2ccnc3ccccc23)cc1 [LDT-627] | 5.2
COc1ccc(Nc2ccnc3ccc(F)cc23)cc1OC [LDT-625] | 10.3

Answer with reported SI (CC50 HepG2 / IC50 3D7) of COc1cccc(Nc2ccnc3ccccc23)c1 [LDT-617]
23.1

Supply SI (CC50 HepG2 / IC50 3D7) value. Item: COc1ccc(Nc2ccnc3c(F)cc(F)cc23)cc1OC [LDT-626]
9.8

Assign SI (CC50 HepG2 / IC50 3D7) to the following record: COc1ccc(Nc2ccnc3ccccc23)cc1OC [LDT-618]
16.8

====

tested on: P. falciparum Dd2^I218F; assay: ABS susceptibility, pfcrt-edited line; type: cell-based; conditions: Plasmodium falciparum
Measure: IC50 (nM)
Number only, in nM; omit the unit.

Look up IC50 of COc1cc2nccc(Nc3cccc(Oc4ccccc4)c3)c2cc1OC [LDT-623] and report it.
435

====

test system: P. falciparum Dd2 ABS parasites; test: ABS parasite survival assay, 72 h, flow cytometry; type: cell-based; conditions: Plasmodium falciparum, DD2, ABS parasites, N = 3; read-out: IC50 Dd2
Binary label based on IC50 with cut-off 2000 nM: below gives Fulfilled, not below gives Not fulfilled.

COc1cccc(Nc2ccnc3ccccc23)c1 | Fulfilled
COc1cc2nccc(Nc3cccc(Oc4ccccc4)c3)c2cc1OC | Fulfilled
COc1cc(Nc2ccnc3cc(Br)ccc23)cc(OC)c1OC | Fulfilled
COc1ccc2c(Nc3ccccc3)ccnc2c1 | Fulfilled
COc1cc(Nc2ccnc3ccc(Br)cc23)cc(OC)c1OC | Not fulfilled
COc1ccc(Nc2ccnc3ccc(F)cc23)cc1OC | Not fulfilled
COc1ccc(Nc2ccnc3c(F)cc(F)cc23)cc1OC | Not fulfilled
COc1ccc(Nc2ccnc3ccccc23)cc1OC | Fulfilled

Is it true that IC50 reported for CCOc1cc2nccc(Nc3cc(OC)c(OC)c(OC)c3)c2cc1OCC is less than 2000 nM?
Fulfilled
